# Protocol summary: Example 4: dose response of FKBP constructs 160-255, Ec50, Ec90 and fold change (raw and normalized to mCherry)
# Assay type: cell-based
# Study conditions: fold change during initial analysis
Each entry below lists one item and its recorded FC (fold change) value.
# answer = number (no unit)

- Molecule: "FKBP-199: FKBP13 DRD-AcGFP construct of Table 10 (protein, Description of sequence: Construct Name: FKBP-199; Mutation(s): Q72R Q84E A117W V85R DRD E98L) HCPIKSRKGDVLHMHYTGKLEDGTEFDSSLPRNQPFVFSLGTGERIKGWDQGLLGMCLGEKRKLVIPSELGYGERGWPPKIPGGATLVFEVELLKIER"
  FC (fold change): 27.1
- Molecule: "FKBP-214: FKBP13 DRD-AcGFP construct of Table 10 (protein, Description of sequence: Construct Name: FKBP-214; Mutation(s): Q72R Q84G A117W V85R DRD P43R M54A) HCRIKSRKGDVLHAHYTGKLEDGTEFDSSLPRNQPFVFSLGTGGRIKGWDQGLLGMCEGEKRKLVIPSELGYGERGWPPKIPGGATLVFEVELLKIER"
  FC (fold change): 51.0

Here's the next entry for you.
Could you tell me which FC (fold change) is on file for FKBP-173 (protein, Description of sequence: Construct Name: FKBP-173; Mutation(s): Q72R Q84E A117W DRD M54A L133G) HCPIKSRKGDVLHAHYTGKLEDGTEFDSSLPRNQPFVFSLGTGEVIKGWDQGLLGMCEGEKRKLVIPSELGYGERGWPPKIPGGATLVFEVEGLKIER ?
4
